# System: PAMPA
# experimentalSetup: Papp (x 10^-6 cm/s) – UV Detection / [row 7]; UV Detection
Catalogue of Papp values
Note: unit ×10⁻⁶ cm/s is implicit; provide only the numeric part.

Record excerpt, results attached:
molecule=CCCCC[C@@H]1OC(=O)[C@@H](C)N(C)C(=O)[C@H](CCCCC)OC(=O)[C@@H](C)N(C)C(=O)[C@H](CCCCC)OC(=O)[C@@H](C)N(C)C(=O)[C@H](CCCCC)OC(=O)[C@@H](C)N(C)C(=O)[C@H](CCCCC)OC(=O)[C@@H](C)N(C)C1=O valuekind=Papp reading=3.19
molecule=CCCCC[C@@H]1OC(=O)[C@@H](C)N(C)C(=O)[C@H](CCCCC)OC(=O)[C@@H](C)N(C)C(=O)[C@H](CCCCC)OC(=O)[C@@H](C)N(C)C(=O)[C@H](CCCCC)OC(=O)[C@@H](C)N(C)C(=O)[C@H](CCCCC)OC(=O)[C@@H](C)N(C)C(=O)[C@H](CCCCC)OC(=O)[C@@H](C)N(C)C1=O valuekind=Papp reading=1.89
molecule="CCCCC[C@@H]1OC(=O)[C@@H](C)N(C)C(=O)[C@H](CCCCC)OC(=O)[C@@H](C)N(C)C(=O)[C@H](CCCCC)OC(=O)[C@@H](C)N(C)C1=O [Compound C1.3, ent-verticilide B1]" valuekind=Papp reading=3.19
molecule=CCCCC[C@@H]1OC(=O)[C@@H](C)N(C)C(=O)[C@H](CCCCC)OC(=O)[C@@H](C)N(C)C1=O valuekind=Papp reading=5.18
molecule=CCCCC[C@@H]1OC(=O)[C@@H](C)N(C)C1=O valuekind=Papp reading=11.2

Query: Look up and report measured Papp for this entry: CCCCC[C@@H]1OC(=O)[C@@H](C)N(C)C(=O)[C@H](CCCCC)OC(=O)[C@@H](C)N(C)C(=O)[C@H](CCCCC)OC(=O)[C@@H](C)N(C)C(=O)[C@H](CCCCC)OC(=O)[C@@H](C)N(C)C1=O [Compound C1.4, ent-verticilide]
Reply: 6.85
